Source listed as PubChem BioAssay AID1918938.

# System: 556581-035-R-J1-PDC complex spheroid viability
# METHOD NOTES: Anticancer human tumor 556581-035-R-J1-PDC patient-derived ovarian carcinoma cell line growth inhibition
# CONDITION SET: second compound 10 µM; first compound 0.3 µM; stronger effect = lower value
Exercise: for every item that follows, state its recorded viability, T/C.
One number for each entry, in %.

compound="COc1cc(C2c3cc4c(cc3C(OC3OC5COC(C)OC5C(O)C3O)C3COC(=O)C23)OCO4)cc(OC)c1O (stereo unspecified) + NC1CC1c1ccc(-c2cccc(O)c2)cc1" observed_result=51.6

Required: viability, T/C, one value per compound below.
1. Nc1ccn(C2OC(CO)C(O)C2(F)F)c(=O)n1 (stereo unspecified) + NC1CC1c1ccc(-c2cccc(O)c2)cc1
2. Nc1ccccc1NC(=O)c1ccc(CNC(=O)OCc2cccnc2)cc1 + NC1CC1c1ccc(-c2cccc(O)c2)cc1
3. CCc1c2c(nc3ccc(O)cc13)-c1cc3c(c(=O)n1C2)COC(=O)[C@]3(O)CC + NC1CCC(NC2CC2c2ccccc2)CC1
4. NS(=O)(=O)OCC1CC(n2ccc3c(NC4CCc5ccccc54)ncnc32)CC1O (stereo unspecified) + NC1CCC(NC2CC2c2ccccc2)CC1
5. Nc1ncn(C2CC(O)C(CO)S2)c(=O)n1 (stereo unspecified) + NC1CCC(NC2CC2c2ccccc2)CC1
6. Nc1ccccc1NC(=O)c1ccc(CNC(=O)OCc2cccnc2)cc1 + NC1CCC(NC2CC2c2ccccc2)CC1
7. Nc1ncn(C2CC(O)C(CO)S2)c(=O)n1 (stereo unspecified) + NC1CC1c1ccc(-c2cccc(O)c2)cc1
8. Nc1ccn(C2OC(CO)C(O)C2(F)F)c(=O)n1 (stereo unspecified) + NC1CCC(NC2CC2c2ccccc2)CC1

Output:
1. 34.1
2. 37.3
3. 0.32
4. 62.1
5. 42.1
6. 17
7. 29.9
8. 42.7

----------
# Test system: 556581-035-R-J1-PDC complex spheroid viability
# METHOD NOTES: Anticancer human tumor 556581-035-R-J1-PDC cell line growth inhibition;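 further: spheroids exposed to agents for seven days; 100% = DMSO vehicle control wells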
# CONDITION SET: second compound 3.16 µM; first compound 3 µM; stronger effect = lower value
Lab note - cut at 20% for viability, T/C: met if strictly below, not met if not.

Field: example entries. Status: answers known.
molecule="NS(=O)(=O)OCC1CC(n2ccc3c(NC4CCc5ccccc54)ncnc32)CC1O (stereo unspecified) + NC1CC1c1ccc(-c2cccc(O)c2)cc1" tested_on="556581-035-R-J1-PDC complex spheroid viability" category_label=met
molecule="COc1cc(C2c3cc4c(cc3C(OC3OC5COC(C)OC5C(O)C3O)C3COC(=O)C23)OCO4)cc(OC)c1O (stereo unspecified) + NC1CC1c1ccc(-c2cccc(O)c2)cc1" tested_on="556581-035-R-J1-PDC complex spheroid viability" category_label=met
molecule="CCN(c1cc(-c2ccc(CN3CCOCC3)cc2)cc(C(=O)NCc2c(C)cc(C)[nH]c2=O)c1C)C1CCOCC1 + NC1CC1c1ccc(-c2cccc(O)c2)cc1" tested_on="556581-035-R-J1-PDC complex spheroid viability" category_label="not met"
molecule="NS(=O)(=O)OCC1CC(n2ccc3c(NC4CCc5ccccc54)ncnc32)CC1O (stereo unspecified) + NC1CCC(NC2CC2c2ccccc2)CC1" tested_on="556581-035-R-J1-PDC complex spheroid viability" category_label="not met"
molecule="O=C(C=Cc1cccc(S(=O)(=O)Nc2ccccc2)c1)NO + NC1CC1c1ccc(-c2cccc(O)c2)cc1" tested_on="556581-035-R-J1-PDC complex spheroid viability" category_label=met

Now look at this one.
Input: Is it true that viability, T/C reported for COc1cc(C2c3cc4c(cc3C(OC3OC5COC(C)OC5C(O)C3O)C3COC(=O)C23)OCO4)cc(OC)c1O (stereo unspecified) + NC1CCC(NC2CC2c2ccccc2)CC1 is less than 20%?
Output: not met
